- study-target: protein-protein interaction between Kras and SOS1 (biotin-tagged human Kras loaded with GDP, His-tagged human SOS1) (Homo sapiens (Human), UniProt P01116, G12D)
- assay: Protein-protein interaction inhibition between Kras and SOS1 (KrasG12D-SOS PPI) using AlphaScreen
- Type: biochemical
- condition-summary: AlphaScreen; biotin-tagged human Kras loaded with GDP, His-tagged human SOS1; read-out: KRAS G12D-SOS PPI IC50
pIC50: −log10 of the molar value. Bridge positions count the residues as written; N and C are the ends. Square brackets hold non-standard residues; d marks the D form. Peptide text beside a SMILES is read from it. * marks the point of attachment. hPhe(3-Cl-4-CF3) = N[C@@H](CCc1ccc(C(F)(F)F)c(Cl)c1)C(=O)O; NMeCha = CN[C@@H](CC1CCCCC1)C(=O)O; Hyp = O=C(O)[C@@H]1C[C@@H](O)CN1; NMeChg = CN[C@H](C(=O)O)C1CCCCC1; NMeD = CN[C@@H](CC(=O)O)C(=O)O; NMeL = CN[C@@H](CC(C)C)C(=O)O; Piperidide = C1CCN(*)CC1; Ac5c = NC1(C(=O)O)CCCC1; X14 = c1cc(C*)cs1; Sar = CNCC(=O)O

compound: CC[C@H](C)[C@@H]1NC(=O)[C@H](CC(C)C)N(C)C(=O)C[C@@H](C(=O)N2CCCCC2)N(C)C(=O)[C@H](C2CCCCC2)N(C)C(=O)C2(CCCC2)NC(=O)[C@@H]2C[C@@H](OCc3ccsc3)CN2C(=O)[C@H](CCc2ccc(C(F)(F)F)c(Cl)c2)NC(=O)CN(C)C(=O)[C@H](CC2CCCCC2)N(C)C(=O)CN(C)C(=O)CN(C)C1=O [Compound 2124] ([NMeL]I[Sar][Sar][NMeCha][Sar][hPhe(3-Cl-4-CF3)][Hyp](X14)[Ac5c][NMeChg][NMeD]-Piperidide; lactam N-11)
pIC50: 9.04

* * *

- study-target: protein-protein interaction between Kras and SOS1 (biotin-tagged human Kras loaded with GDP, His-tagged human SOS1) (Homo sapiens (Human), UniProt P01116, G12D)
- assay: Protein-protein interaction inhibition between Kras and SOS1 (KrasG12D-SOS PPI) using AlphaScreen;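 further: kras produced in E. coli, Ni-coupled donor beads and streptavidin acceptor beads, excitation 680 nm with emission detected at 520–620 nm via singlet oxygen transfer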
- Format: biochemical
- condition-summary: AlphaScreen; biotin-tagged human Kras loaded with GDP, His-tagged human SOS1; read-out: KRAS G12D-SOS PPI IC50
Bridge positions count the residues as written; N and C are the ends. Square brackets hold non-standard residues; d marks the D form. Peptide text beside a SMILES is read from it. * marks the point of attachment. hPhe(3-Cl-4-CF3) = N[C@@H](CCc1ccc(C(F)(F)F)c(Cl)c1)C(=O)O; NMeCha = CN[C@@H](CC1CCCCC1)C(=O)O; NMeD = CN[C@@H](CC(=O)O)C(=O)O; CH2CONHtBu = CC(C)(C)NC(=O)C*; NMeL = CN[C@@H](CC(C)C)C(=O)O; Ala(CN) = N#CC[C@H](N)C(=O)O; NMeV = CN[C@H](C(=O)O)C(C)C; d(β3hA) = C[C@@H](N)CC(=O)O; NMeS = CN[C@@H](CO)C(=O)O; NMeA = CN[C@@H](C)C(=O)O; Piperidide = C1CCN(*)CC1; Ac5c = NC1(C(=O)O)CCCC1; Aze = O=C(O)[C@@H]1CCN1; Isopentyl = CC(C)CC*; Sar = CNCC(=O)O

compound: CC(C)C[C@H]1C(=O)N[C@@H](CC#N)C(=O)N(C)[C@@H](C)C(=O)N2CC[C@H]2C(=O)N(C)[C@@H](CC2CCCCC2)C(=O)N(C)CC(=O)N[C@@H](CCc2ccc(C(F)(F)F)c(Cl)c2)C(=O)N2CCC[C@H]2C(=O)NC2(CCCC2)C(=O)N(C)[C@@H](C(C)C)C(=O)N(C)[C@H](C(=O)N2CCCCC2)CC(=O)N1C [Compound 278] ([NMeL][Ala(CN)][NMeA][Aze][NMeCha][Sar][hPhe(3-Cl-4-CF3)]P[Ac5c][NMeV][NMeD]-Piperidide; lactam N-11)
unit-of-measurement: nM
IC50: 25
//
compound: CC[C@H](C)[C@@H]1NC(=O)[C@H](CC(C)C)N(C)C(=O)C[C@@H](C)NC(=O)[C@H](CC(C)C)N(C)C(=O)C2(CCCC2)NC(=O)[C@H](COCC(=O)NC(C)(C)C)N(C)C(=O)[C@H](CCc2ccc(C(F)(F)F)c(Cl)c2)NC(=O)CN(C)C(=O)[C@H](COCCC(C)C)N(C)C(=O)CN(C)C(=O)CN(C)C1=O [Compound 1492] (cyclo([Ac5c][NMeL][d(β3hA)][NMeL]I[Sar][Sar][NMeS](Isopentyl)[Sar][hPhe(3-Cl-4-CF3)][NMeS](CH2CONHtBu)))
unit-of-measurement: nM
IC50: 240
